Biological target: T1, human APJ (transfected HEK293 cells, Gαi1 BRET assay) (human, UniProt P35414 1-380)
T1 sequence (looked up): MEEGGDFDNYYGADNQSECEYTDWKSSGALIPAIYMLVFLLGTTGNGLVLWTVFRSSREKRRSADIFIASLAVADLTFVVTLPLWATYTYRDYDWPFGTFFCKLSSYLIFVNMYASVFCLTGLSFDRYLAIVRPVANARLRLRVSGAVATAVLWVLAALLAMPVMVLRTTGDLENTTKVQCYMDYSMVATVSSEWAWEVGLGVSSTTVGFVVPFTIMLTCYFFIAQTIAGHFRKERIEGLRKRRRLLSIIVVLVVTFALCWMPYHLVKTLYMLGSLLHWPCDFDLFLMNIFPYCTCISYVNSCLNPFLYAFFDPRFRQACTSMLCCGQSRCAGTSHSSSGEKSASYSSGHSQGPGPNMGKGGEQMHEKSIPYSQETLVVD
Assay: cell-based or functional assay
Numbered stars: 1 amine (or outer) side, 2 acyl side, 3 side chain; on linkers, the order of the positions; unused ones are H or OH. Bridge positions count the residues as written; N and C are the ends. Square brackets hold non-standard residues; d marks the D form. Ends that are not written are not given here. cypTyr(OBn) = 3-cyclopentyl-O-benzyl-L-tyrosine, O=C([C@H](Cc1ccc(OCc2ccccc2)c(C2CCCC2)c1)N[*:1])[*:2]; cypY = 3-cyclopentyl-tyrosine, O=C([C@H](Cc1ccc(O[*:3])c(C2CCCC2)c1)N[*:1])[*:2]; Tyr(OBn) = O-benzyl-tyrosine, O=C([C@H](Cc1ccc(OCc2ccccc2)cc1)N[*:1])[*:2]; dcypTyr(OBn) = not defined here; Nle = CCCC[C@H](N)C(=O)O
Please provide measured EC50 Gαi1 for the entries that follow.

Some binders with recorded EC50 Gαi1:
[[record]]
binder = "Ac-KFRRQRPRLEHKKP[Nle]P[cypTyr(OBn)] (lactam 10-13) [Compound 63 (KT02-76)]"
assay_endpoint = "EC50 Gαi1"
result = "5.47 nM"

[[record]]
binder = "Ac-KFRRQRPRLEHKKP[Nle]P[Tyr(OBn)] (lactam 10-13) [Compound 66 (KT03-02)]"
assay_endpoint = "EC50 Gαi1"
result = "21.7 nM"

[[record]]
binder = "Ac-KFRRQRPRLEHKKP[Nle]P[dcypTyr(OBn)] (lactam 10-13; reading uncertain; also: printed as Ac-K-F-R-R-Q-R-P-R-L-[E-H-K-K]-P-Nle-P-dcypTyrOBn) [Compound 65 (KT02-99)]"
assay_endpoint = "EC50 Gαi1"
result = "73 nM"


Provide the reported EC50 Gαi1 of each entry below, same order.
1. Ac-KFRRQRPRLEHKKP[Nle]P[cypY] (lactam 10-13) [Compound 64 (KT02-78)]
2. Ac-KFRRQRPRLEHAKPAPF (lactam 10-13) [Compound 62 (KT02-62)]

Response:
1. 19.4 nM
2. 33.4 nM
